Every entry's value here was drawn from PubChem BioAssay (NCI).

I'd be grateful if you could share measured TGI for these entries.
system: HOP-62 NSCLC; assay: NCI tumour cell line growth inhibition, 48 h

Study these solved cases before continuing.
CCCc1cc(OC(=O)c2c(O)cc(OC)cc2CCC)cc(O)c1C(=O)O
35.6 µM
CC[C@H]1OC(=O)[C@H](C)[C@@H](O[C@H]2C[C@@](C)(OC)[C@@H](O)[C@H](C)O2)[C@H](C)[C@@H](O[C@@H]2O[C@H](C)C[C@H](N(C)C)[C@H]2O)[C@](C)(OC)C/C(C)=C2/O[C@@]1(C)C=C2C
4.74 µM
O=[N+]([O-])c1cccc(Nc2nc(Cl)nc(Cl)n2)c1
> 100 µM
COc1cc2cc(Oc3cccc(NC(=O)Nc4cc(C(F)(F)F)cc(C(F)(F)F)c4)c3)c(C)nc2cc1OC
2.88 µM
CC(=O)c1ccc(Nc2c3ccccc3nc3occc23)cc1
> 100 µM
COc1ccccc1NC(=O)C1=C(C)NC(C)=C(C(=O)Nc2ccccc2OC)C1c1ccco1
74.6 µM

Batch request: TGI per item, same order as input.
1. OCCN(CO)CO
2. COC(=O)/C=C(\C)CCC1SC1(C)C (centres undefined)
3. CN(N=O)c1nc2c(C(N)=O)ncn2s1
4. COCC(C(=O)OC1C/C=C/C=C/C(=O)OC(C(C)C(O)C(C)CCC(OC(=O)C(C)N(C)C)C(C)C(OC(C)=O)C(C)/C=C/N(C)C=O)C/C=C/C(OC)CC(C)C/C=C(\C)C(OC)CCC(C)C(O)C1C)N(C)C (centres undefined)
5. COc1ccc(/C=C/C(=O)c2cc3c(N)c(C(=O)Nc4ccc(OC)cc4)sc3nc2C)cc1
6. CCOP(=O)(O)C(Nc1ccc(N=Nc2ccccc2)cc1)c1cccc(C(Nc2ccc(N=Nc3ccccc3)cc2)P(=O)(O)OCC)c1 (centres undefined)
7. C=CCN1CCC(c2cc(C(=O)OCC)[nH]c2-c2cc(C)no2)C1=O (centres undefined)

Reply text:
1: > 100 µM; 2: > 100 µM; 3: > 100 µM; 4: 0.0013 µM; 5: > 50 µM; 6: 58.5 µM; 7: > 100 µM

----------
tested on: K-562 leukemia; assay: NCI tumour cell line growth inhibition, 48 h
I'd be grateful if you could share measured GI50 for these entries.

Batch request: GI50 per item, same order as input.
1. CC1(C)C2CCC13C(=O)C1OC3(C2)C2C(=O)c3c(ccc4c3ccc3ccccc34)C(=O)C12 (stereo not drawn)
2. CC(C)OP(=O)(O)c1ncc(-c2ccc(C(F)(F)F)cc2)c(NC2CCCCCC2)n1
3. OCC(O)C(O)C(O)C(O)c1nnc2c(-c3ccccc3)nc3ccccc3n12 (stereo not drawn)

Reply text:
["1.12 µM", "55 µM", "78.3 µM"]

----------
I'd be grateful if you could share measured TGI for these entries.
system: NCI/ADR-RES ovarian; test: NCI tumour cell line growth inhibition, 48 h

Study these solved cases before continuing.
CCOC(=O)[C@@H]1CSC(CC)=C(C(=O)O)N1
> 100 µM
OCC(O)C(O)C(O)C(O)c1nnc2c(-c3ccccc3)nc3ccccc3n12 (centres undefined)
> 100 µM
O=CN1N=C(c2cccc(Nc3ccnc4cc(Cl)ccc34)c2)CC1c1ccc(Cl)cc1 (centres undefined)
3.94 µM
CCCc1nc2c(n1CC)C(=O)c1ccccc1C2=O
78.7 µM

Batch request: TGI per item, same order as input.
1. COc1ccc2nc3ccc(OC)cc3c(SCCCl)c2c1
2. O=C(O)c1cc2ccccc2c(N=Nc2ccc(S(=O)(=O)Nc3ncccn3)cc2)c1O

Reply text:
> 58.7 µM
> 100 µM

Batch request: TGI per item, same order as input.
1. CC1=NN(c2nc(N)nc(/C(C#N)=C\c3ccc(-c4ccc([N+](=O)[O-])cc4)o3)n2)C(C)(C)C1
2. COC(=O)[C@@](NC(=O)OCc1ccccc1)([C@H](C)O)C(F)(F)F
3. CC(=O)Oc1cc2cnc3c4cc(OC(C)=O)c(OC(C)=O)cc4ccc3c2cc1OC(C)=O

Reply text:
1: > 100 µM; 2: > 100 µM; 3: > 100 µM

Batch request: TGI per item, same order as input.
1. CCOC(=O)c1c(CN2CCN(C)CC2)nc2ccc(Cl)cc2c1-c1ccccc1
2. Cc1cc(-c2nc3c(F)cccc3s2)ccc1N

Reply text:
["14.5 µM", "> 100 µM"]

----------
test system: ACHN renal; experiment: NCI tumour cell line growth inhibition, 48 h; in the data active = GI50 below about 0.43 µM; inactive = the rest
Pick one and only one: active, inactive

Inquiry: Hi, do you know how Cc1cc(NN=C(c2ccc(O)cc2)c2ccc(O)cc2)c([N+](=O)[O-])cc1[N+](=O)[O-] came out in this test?
Reply text: inactive

----------
tested on: NCI/ADR-RES ovarian; assay: NCI tumour cell line growth inhibition, 48 h
I'd be grateful if you could share measured TGI for these entries.
Answers are plain numbers, in µM.

Study these solved cases before continuing.
COc1ccc2c(c1)C(=O)c1c-2c(OCCN(C)C)nc2cc(OC)c(OC)cc12
42.3
O=C1CSC(c2ccccc2O)N1c1ccc(-n2c(-c3ccccc3)nc3ccccc3c2=O)cc1 (centres undefined)
72.6
COc1ccc(-c2cc(/C=C/C(=O)c3ccc(N)cc3)[nH]n2)cc1
15.5

Next, consider the following compound.
Query COc1cc(/C=C2\SC(N3CCCCC3)=NC2=O)ccc1OCCCCCCOc1ccc(/C=C2\SC(N3CCCCC3)=NC2=O)cc1OC yields TGI of 28.2

----------
I'd be grateful if you could share measured TGI for these entries.
tested on: NCI/ADR-RES ovarian; assay: NCI tumour cell line growth inhibition, 48 h

Study these solved cases before continuing.
COc1cc([C@@H]2c3cc4c(cc3[C@@H](Nc3ccc(Cl)cc3C(=O)c3ccccc3)[C@H]3COC(=O)[C@H]23)OCO4)cc(OC)c1OC
> 100 µM
O=C(O)c1ccccc1NCn1c(=S)sc2ccccc21
> 100 µM
N#[N+]c1ccc(Nc2ccccc2)cc1
> 50 µg/mL
Cn1c(=O)c2c(nc(N/N=C/c3ccccc3C(=O)O)n2C)n(C)c1=O
> 100 µM

Next, consider the following compound.
Query COc1cc(-c2nn(-c3cccc(NC(=O)CCN4CCN(c5ccccc5)CC4)c3)cc2-c2ccncc2)ccc1Cl yields TGI of > 100 µM

----------
tested on: DU-145 prostate; experiment: NCI tumour cell line growth inhibition, 48 h
I'd be grateful if you could share measured TGI for these entries.

Study these solved cases before continuing.
Oc1ccccc1C=Nc1ccc(-c2nc3ccccc3s2)cc1
> 100 µM
CCn1c(-c2nonc2N)nc2cnc(Oc3cccc(NC(=O)c4ccc(N(C)C)cc4)c3)cc21
> 25 µM

Query COc1cc2ncnc(Oc3cccc(NC(=O)Nc4cc(C(C)(C)C(F)(F)F)on4)c3)c2cc1OC yields TGI of > 58.5 µM

----------
tested on: NCI/ADR-RES ovarian; experiment: NCI tumour cell line growth inhibition, 48 h
Property label: TGI

Study these solved cases before continuing.
COC(=O)C(=O)Nc1cc2c3c(c1)Oc1cccc4c1C3(C)c1c(cccc1O2)O4
> 100 µM
C1CCCN(NC2=NCCO2)CC1
> 100 µM

Next, consider the following molecule.
Query CC(C)(O)c1cc2c(cc1C(C)(C)O)-c1ccccc1-2 yields TGI of > 100 µM

----------
test system: SF-295 CNS; assay: NCI tumour cell line growth inhibition, 48 h
I'd be grateful if you could share measured TGI for these entries.

Study these solved cases before continuing.
O=[N+]([O-])c1ccc(N=Nc2c(O)[nH]c3ccccc23)c([N+](=O)[O-])c1
25.1 µM
CC(Oc1ccc(Cl)cc1Cl)C(=O)NN1C(=O)CC(=O)N(c2ccccc2)C1=S (stereo not drawn)
> 100 µM

Next, consider the following compound.
Reported TGI (SF-295 CNS) for entry CC(C)OP(=O)(O)c1ncc(-c2ccc(C(F)(F)F)cc2)c(NC2CCCCCC2)n1 is > 100 µM

----------
tested on: A498 renal; test: NCI tumour cell line growth inhibition, 48 h
Property label: TGI

O=[N+]1[C@H](c2ccccc2)[C@H](c2ccccc2)N1[O-]
67.3 µM
Cc1ccc(-c2cn3c(nc4ccccc43)c(/C=C/c3ccco3)n2)cc1
> 100 µM
COc1cc2c(c(OC)c1OC)C(=O)NCCC2
> 100 µM
CC(Cn1c2c(c3cc(O)ccc31)CCc1ccc(O)cc1-2)N(C)C (centres undefined)
53.7 µM
CCCCCCCCCCCCCCCCNC(=O)/C(=C\c1ccc(Cl)c(Cl)c1)NC(=O)c1ccccc1
35.5 µM

Batch request: TGI per item, same order as input.
1. Cc1sc2nc3n(c(=O)c2c1C)N=CN(c1ccc(Cl)cc1)C3
2. COc1ccc(N2C(=O)C(=O)C3(CCCCC3)C2=O)c2ccccc12
3. COc1ccc(/C=N/NS(=O)(=O)c2ccccc2)cc1
4. COc1ccccc1N/C(SCc1ccccc1)=C(/C(Cl)=C(Cl)Cl)[N+](=O)[O-]
5. CC(C)(C)OC(=O)N1CCCC1C(=O)NC(c1ccccc1)c1ccccc1 (centres undefined)
6. C/C(C=O)=C/[C@@]1(C)O[C@@H](C)[C@@](C)(O)[C@@H]1O
7. C=C1C(O)C2(O)OCC34C(CC5C(C)=CC(=O)C(O)C5(C)C23)OC(=O)C(OC(=O)C/C=C/CCCCCCCC)C14 (centres undefined)
8. O=c1[nH][nH]c(=O)c2c1ccc1oc3ccccc3c12

Reply text:
1: > 100 µM; 2: > 10 µM; 3: > 100 µM; 4: > 100 µM; 5: > 100 µM; 6: > 100 µM; 7: 0.0324 µM; 8: > 100 µM

Batch request: TGI per item, same order as input.
1. C[As](C)SC1OCC(O)C(O)C1O (centres undefined)
2. Cc1c(-c2ccccc2)[nH]c2cn[nH]c(=O)c12
3. CCOC(=O)c1c(NC(=O)c2ccc(Cl)cc2)sc2c(CN(C)C)c(O)ccc12
4. Nc1ccccc1C#Cc1ccccc1C#Cc1cccs1
5. CN(C)c1ccc(C(O)C2=CC(=O)c3ccccc3C2=O)cc1 (centres undefined)
6. O=C(O)c1ccccc1NCn1c(=S)sc2ccccc21

Reply text:
1.22 µM
> 100 µM
19.9 µM
29.5 µM
63 µM
> 100 µM

Batch request: TGI per item, same order as input.
1. COc1ccc2nc3cc(Cl)ccc3c(NCCCN3CCN(CCCNc4ccc5nnn6c7ccccc7c(=O)c4c56)CC3)c2c1
2. CC[C@H]1OC(=O)[C@H](C)[C@@H](O[C@H]2C[C@@](C)(OC)[C@@H](O)[C@H](C)O2)[C@H](C)[C@@H](O[C@@H]2O[C@H](C)C[C@H](N(C)C)[C@H]2O)[C@](C)(OC)C/C(C)=C2/O[C@@]1(C)C=C2C
3. COC(=O)/C=C(\C)CCC1SC1(C)C (centres undefined)
4. OCC(O)C(O)C(O)C(O)c1nnc2c(-c3ccccc3)nc3ccccc3n12 (centres undefined)
5. C=CC(=O)Nc1cc2c(Nc3ccc(F)c(Cl)c3)ncnc2cc1C#CC(C)(C)N1CCN(C)CC1

Reply text:
["> 25 µM", "3.59 µM", "> 100 µM", "> 100 µM", "3.94 µM"]
